system: Kummerowia striata; assay: Herbicidal activity against Kummerowia striata assessed as killing at 2.5 g/a at 25 degC measured after 2 weeks; type: functional
Measured property: Activity (%)
Give bare numbers, in %.

Field: example entries. Status: answers known.
CCc1cccc(CC)c1N(COC)C(=O)CCl	60
CCc1cccc(C)c1N(C(=O)CCl)C(C)COC (centres undefined)	100
CCOCCN(C(=O)CCl)C(=C(C)C)c1ccccc1	80

Short answer for COCCN(C(=O)CCl)C(=C(C)C)c1ccccc1 : Activity was 80
